Biological target: HDAC1 (Homo sapiens, UniProt Q13547)
Construct: purchased Enzo Life Sciences
Sequence (Q13547 whole entry): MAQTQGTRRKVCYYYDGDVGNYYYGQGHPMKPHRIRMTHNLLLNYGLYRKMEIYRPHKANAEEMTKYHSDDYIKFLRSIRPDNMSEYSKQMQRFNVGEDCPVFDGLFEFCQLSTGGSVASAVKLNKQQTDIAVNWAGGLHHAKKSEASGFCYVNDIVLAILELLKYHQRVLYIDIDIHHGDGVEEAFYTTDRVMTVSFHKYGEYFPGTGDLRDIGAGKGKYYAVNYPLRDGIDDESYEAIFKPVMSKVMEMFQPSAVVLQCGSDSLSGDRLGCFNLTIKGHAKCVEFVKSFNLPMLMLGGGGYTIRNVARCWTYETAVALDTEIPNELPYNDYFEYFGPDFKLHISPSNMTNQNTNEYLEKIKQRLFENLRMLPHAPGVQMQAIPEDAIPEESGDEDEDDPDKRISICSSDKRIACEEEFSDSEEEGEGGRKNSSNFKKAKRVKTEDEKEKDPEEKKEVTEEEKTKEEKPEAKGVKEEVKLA
Assay: HDAC Inhibition Screening Assay (FLUOR DE LYS Fluorimetric Drug Discovery Kit), HDAC1
Format: biochemical
Conditions: 10 μM compound
recordedEndpoint: inhibition at 10 µM

Exercise: Endpoint output: inhibition at 10 µM of O=C(/C=C/c1ccc(CNC(=O)COc2ccc3c(c2)CC/C(=C\c2cc(C(F)(F)F)cc(C(F)(F)F)c2)C3=O)cc1)NO [Compound 75] . Value?
Solution: < 50%

Exercise: Thanks! And Nc1cc(F)ccc1NC(=O)CCCCC(=O)Nc1ccc2c(c1)CC/C(=C\c1cc(C(F)(F)F)cc(C(F)(F)F)c1)C2=O [Compound 13] ?
Solution: < 50%

Exercise: Thanks! And COc1ccc(S(=O)(=O)NC2CCc3cc(/C=C/C(=O)Nc4ccc(F)cc4N)ccc32)cc1 (stereo not shown) [Compound 19] ?
Solution: < 50%

Exercise: Thanks! And O=C(CCCCC(=O)N1CCN(C(=O)c2ccc3c(c2)CC/C(=C\c2cc(C(F)(F)F)cc(C(F)(F)F)c2)C3=O)CC1)NO [Compound 83] ?
Solution: < 50%

Exercise: Thanks! And CCN(CC)c1ccc(C(=O)NC2CCc3cc(/C=C/C(=O)NO)ccc32)cc1 (stereo not shown) [Compound 28] ?
Solution: > 80%

Exercise: Thanks! And CCN(CC)c1ccc(C(=O)NC2CCc3cc(/C=C/C(=O)NCCCCCC(=O)Nc4ccc(F)cc4N)ccc32)cc1 (stereo not shown) [Compound 29] ?
Solution: < 50%

Exercise: Thanks! And Nc1cc(F)ccc1NC(=O)CCCCCNC(=O)/C=C/c1ccc2c(c1)CCC2NC(=O)c1ccc(F)cc1 (stereo not shown) [Compound 31] ?
Solution: 50 to 80%

* * *

Target: HDAC3 (Homo sapiens, UniProt O15379)
Construct: purchased Enzo Life Sciences
Sequence (O15379 whole entry): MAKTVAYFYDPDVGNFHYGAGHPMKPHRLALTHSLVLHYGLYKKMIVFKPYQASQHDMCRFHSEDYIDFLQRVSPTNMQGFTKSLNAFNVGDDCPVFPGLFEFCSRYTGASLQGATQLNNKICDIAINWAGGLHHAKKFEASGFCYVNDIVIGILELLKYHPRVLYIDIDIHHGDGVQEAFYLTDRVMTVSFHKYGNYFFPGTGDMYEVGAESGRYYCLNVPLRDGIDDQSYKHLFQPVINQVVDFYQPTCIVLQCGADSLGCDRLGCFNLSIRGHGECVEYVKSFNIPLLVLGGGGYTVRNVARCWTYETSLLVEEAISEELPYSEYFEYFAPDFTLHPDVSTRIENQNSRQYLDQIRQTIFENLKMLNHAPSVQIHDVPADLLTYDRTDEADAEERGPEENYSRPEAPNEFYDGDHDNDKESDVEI
Sequence (O75376 395-489 partner limits assumed): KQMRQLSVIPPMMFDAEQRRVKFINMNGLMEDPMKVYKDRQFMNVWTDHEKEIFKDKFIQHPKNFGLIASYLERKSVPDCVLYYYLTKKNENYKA
Experiment: HDAC Inhibition Screening Assay (FLUOR DE LYS Fluorimetric Drug Discovery Kit), HDAC3
Assay type: biochemical
Conditions: 50 μM compound
Task for the reader: assign each of the following molecules its reported inhibition at 50 µM.

Exercise: Endpoint output: inhibition at 50 µM of O=C(/C=C/c1ccc(COc2ccc3c(c2)CCC(Cc2cc(C(F)(F)F)cc(C(F)(F)F)c2)C3=O)cc1)NO (stereo not drawn) [Compound 73] . Value?
Solution: < 50%

Exercise: Thanks! And Nc1cc(F)ccc1NC(=O)c1ccc(COc2ccc3c(c2)CCC(Cc2cc(C(F)(F)F)cc(C(F)(F)F)c2)C3=O)cc1 (stereo not drawn) [Compound 67] ?
Solution: < 50%

Exercise: Thanks! And Cc1ccc(S(=O)(=O)NC2CCc3cc(/C=C/C(=O)NO)ccc32)cc1 (stereo not drawn) [Compound 16] ?
Solution: > 80%

Exercise: Thanks! And Nc1cc(F)ccc1NC(=O)/C=C/c1ccc2c(c1)CCC2NC(=O)c1cc(C(F)(F)F)cc(C(F)(F)F)c1 (stereo not drawn) [Compound 21] ?
Solution: < 50%

Exercise: Thanks! And Nc1cc(F)ccc1NC(=O)/C=C/c1ccc2c(c1)CCC2NCCc1c[nH]c2ccccc12 (stereo not drawn) [Compound 57] ?
Solution: > 80%

Exercise: Thanks! And O=C(/C=C/c1ccc2c(c1)CCC2NCc1cc(C(F)(F)F)cc(C(F)(F)F)c1)NO (stereo not drawn) [Compound 33] ?
Solution: > 80%

Exercise: Thanks! And Nc1cc(F)ccc1NC(=O)/C=C/c1ccc(COc2ccc3c(c2)CC/C(=C\c2cc(C(F)(F)F)cc(C(F)(F)F)c2)C3=O)cc1 [Compound 71] ?
Solution: < 50%

Exercise: Thanks! And O=C(/C=C/c1ccc2c(c1)CCC2NCCc1cc(C(F)(F)F)cc(C(F)(F)F)c1)NO (stereo not drawn) [Compound 54] ?
Solution: > 80%

Exercise: Thanks! And O=C(CCCCCN(CC(=O)NC1CCc2ccccc21)CC(=O)NC1CCc2ccccc21)NO (stereo not drawn) [Compound 45] ?
Solution: > 80%

Exercise: Thanks! And Nc1cc(F)ccc1NC(=O)CCCCNC(=O)c1ccc2c(c1)CC/C(=C\c1cc(C(F)(F)F)cc(C(F)(F)F)c1)C2=O [Compound 80] ?
Solution: < 50%

Exercise: Thanks! And COc1ccc(S(=O)(=O)NC2CCc3cc(/C=C/C(=O)NO)ccc32)cc1 (stereo not drawn) [Compound 20] ?
Solution: > 80%

Exercise: Thanks! And Nc1cc(F)ccc1NC(=O)/C=C/c1ccc2c(c1)CCCC2NC(=O)c1cc(C(F)(F)F)cc(C(F)(F)F)c1 (stereo not drawn) [Compound 23] ?
Solution: < 50%

Exercise: Thanks! And CCN(CC)c1ccc(C(=O)NC2CCc3cc(/C=C/C(=O)NCCCCCC(=O)NO)ccc32)cc1 (stereo not drawn) [Compound 30] ?
Solution: > 80%

Exercise: Thanks! And CN(C(=O)OCc1cc(C(F)(F)F)cc(C(F)(F)F)c1)C1CCc2ccc(/C=C/C(=O)NO)cc21 (stereo not drawn) [Compound 65] ?
Solution: > 80%

Exercise: Thanks! And O=C(/C=C/c1ccc2c(c1)CCCC2OCc1cc(C(F)(F)F)cc(C(F)(F)F)c1)NO (stereo not drawn) [Compound 36] ?
Solution: > 80%

* * *

Biological target: HDAC1 (Homo sapiens)
Construct: purchased Enzo Life Sciences
Test: HDAC Inhibition Screening Assay (FLUOR DE LYS Fluorimetric Drug Discovery Kit), HDAC1
Type: biochemical
Conditions: 10 μM compound
Task for the reader: assign each of the following compounds its reported inhibition at 10 µM.

Exercise: Endpoint output: inhibition at 10 µM of Nc1cc(F)ccc1NC(=O)c1ccc(COc2ccc3c(c2)CCC(Cc2cc(C(F)(F)F)cc(C(F)(F)F)c2)C3=O)cc1 (stereo not shown) . Value?
Solution: < 50%

Exercise: Thanks! And Nc1cc(F)ccc1NC(=O)CCCCNC(=O)c1ccc2c(c1)CC/C(=C\c1cc(C(F)(F)F)cc(C(F)(F)F)c1)C2=O ?
Solution: < 50%

Exercise: Thanks! And O=C(CCCCNC(=O)c1ccc2c(c1)CC/C(=C\c1cc(C(F)(F)F)cc(C(F)(F)F)c1)C2=O)NO ?
Solution: < 50%

Exercise: Thanks! And O=C(NO)c1ccc(COc2ccc3c(c2)CCC(Cc2cc(C(F)(F)F)cc(C(F)(F)F)c2)C3=O)cc1 (stereo not shown) ?
Solution: < 50%

Exercise: Thanks! And O=C(/C=C/c1ccc2c(c1)CCC2NCCc1c[nH]c2ccccc12)NO (stereo not shown) ?
Solution: > 80%

Exercise: Thanks! And O=C(/C=C/c1ccc2c(c1)CCC2OCc1cc(C(F)(F)F)cc(C(F)(F)F)c1)NO (stereo not shown) ?
Solution: > 80%

Exercise: Thanks! And COc1ccc2c(c1)CCC2NC(=O)CCCCCCC(=O)NO (stereo not shown) ?
Solution: > 80%

* * *

Molecular target: HDAC1 (Homo sapiens, UniProt Q13547)
Construct: purchased Enzo Life Sciences
Assay: HDAC Inhibition Screening Assay (FLUOR DE LYS Fluorimetric Drug Discovery Kit), HDAC1
Assay type: biochemical
Details: 2 μM compound
recordedEndpoint: inhibition at 2 µM

Exercise: Endpoint output: inhibition at 2 µM of O=C(CCCCCNC(=O)COc1ccc2c(c1)CC/C(=C\c1cc(C(F)(F)F)cc(C(F)(F)F)c1)C2=O)NO . Value?
Solution: < 50%

Exercise: Thanks! And COc1ccc(S(=O)(=O)NC2CCc3cc(/C=C/C(=O)NO)ccc32)cc1 (stereo not shown) ?
Solution: 50 to 80%

Exercise: Thanks! And O=C(/C=C/c1ccc2c(c1)CCC2OCc1cc(C(F)(F)F)cc(C(F)(F)F)c1)NO (stereo not shown) ?
Solution: < 50%

Exercise: Thanks! And O=C(/C=C/c1ccc(COc2ccc3c(c2)CCC(Cc2cc(C(F)(F)F)cc(C(F)(F)F)c2)C3=O)cc1)NO (stereo not shown) ?
Solution: < 50%

Exercise: Thanks! And Nc1cc(F)ccc1NC(=O)CCCCNC(=O)c1ccc2c(c1)CC/C(=C\c1cc(C(F)(F)F)cc(C(F)(F)F)c1)C2=O ?
Solution: < 50%

Exercise: Thanks! And O=C(CCCCCCC(=O)Nc1ccc2c(c1)CCCC2O)NO (stereo not shown) ?
Solution: > 80%

Exercise: Thanks! And Nc1cc(F)ccc1NC(=O)c1ccc(COc2ccc3c(c2)CCC(Cc2cc(C(F)(F)F)cc(C(F)(F)F)c2)C3=O)cc1 (stereo not shown) ?
Solution: < 50%

* * *

Target: HDAC3 (Homo sapiens)
Construct: purchased Enzo Life Sciences
Experiment: HDAC Inhibition Screening Assay (FLUOR DE LYS Fluorimetric Drug Discovery Kit), HDAC3
Type: biochemical
Conditions: 10 μM compound
Task for the reader: assign each of the following compounds its reported inhibition at 10 µM.

Exercise: Endpoint output: inhibition at 10 µM of Nc1cc(F)ccc1NC(=O)/C=C/c1ccc(COc2ccc3c(c2)CC/C(=C\c2cc(C(F)(F)F)cc(C(F)(F)F)c2)C3=O)cc1 . Value?
Solution: < 50%

Exercise: Thanks! And CN(C(=O)OCc1cc(C(F)(F)F)cc(C(F)(F)F)c1)C1CCc2ccc(/C=C/C(=O)NO)cc21 (stereo not shown) ?
Solution: 50 to 80%

Exercise: Thanks! And O=C(/C=C/c1ccc2c(c1)CCCC2NC(=O)c1cc(C(F)(F)F)cc(C(F)(F)F)c1)NO (stereo not shown) ?
Solution: < 50%

Exercise: Thanks! And CN(C)c1ccc(CCNC2CCc3cc(/C=C/C(=O)NO)ccc32)cc1 (stereo not shown) ?
Solution: > 80%
